system: iniA; test: Northern blot of iniA induction after antibiotic treatment; type: cell-based; settings: total RNA from M. tuberculosis cultured with or without antibiotics; FIG. 1
measured.property: iniA induction (Northern blot)

[H]/N=C(/N)N[C@H]1[C@H](O)[C@@H](O)[C@H](O[C@@H]2O[C@@H](C)[C@](O)(C=O)[C@H]2O[C@@H]2O[C@@H](CO)[C@H](O)[C@@H](O)[C@@H]2NC)[C@@H](N/C(N)=N\[H])[C@@H]1O :: not
CC[C@@H](CO)NCCN[C@@H](CC)CO :: strongly induced
CO[C@H]1/C=C/O[C@@]2(C)Oc3c(C)c(O)c4c(O)c(c(/C=N/N5CCN(C)CC5)c(O)c4c3C2=O)NC(=O)/C(C)=C\C=C\[C@H](C)[C@H](O)[C@@H](C)[C@@H](O)[C@@H](C)[C@H](OC(C)=O)[C@@H]1C :: not
NNC(=O)c1ccncc1 :: strongly induced
